Kindly state zone of inhibition at 25 µg/disc for each of the entries shown.
System: Xanthomonas euvesicatoria pv. sesami
Test: Antibacterial activity against Xanthomonas campestris pv. sesami at 25 ug/disk after 24 hr by disk diffusion method
Assay type: functional
Details: read-out: DIZ
Provide the reading as a plain figure in mm.

Task: Can you share its zone of inhibition at 25 µg/disc? I mean this molecule: CCc1ccc(CCOc2ccc(C3=NOC(C(=O)OC)C3)cc2)nc1 (centres undefined)
Output: 3

Task: Requested field: zone of inhibition at 25 µg/disc. Item: CCc1ccc(CCOc2ccc(C3=NOC(CO)C3)cc2)nc1 (centres undefined)
Output: 13

Task: // returns reported zone of inhibition at 25 µg/disc for input CCc1ccc(CCOc2ccc(C3=NOC(Cc4ccc5c(c4)OCO5)C3)cc2)nc1 (centres undefined)
Output: 4

Task: Given the entry CN(C)[C@@H]1C(O)=C(C(N)=O)C(=O)[C@@]2(O)C(O)=C3C(=O)c4c(O)cccc4[C@@](C)(O)[C@H]3C[C@@H]12 [TETRACYCLINE] , report its measured zone of inhibition at 25 µg/disc.
Output: 12

Task: Any idea what its zone of inhibition at 25 µg/disc is? The molecule is CCOC(=O)C1CC(c2ccc(OCCc3ccc(CC)cn3)cc2)=NO1 (centres undefined)
Output: 9

Task: Could you tell me which zone of inhibition at 25 µg/disc is on file for CCc1ccc(CCOc2ccc(C3=NOC(Cc4ccc(O)c(OC)c4)C3)cc2)nc1 (centres undefined) ?
Output: 13

Task: Could you tell me which zone of inhibition at 25 µg/disc is on file for CCc1ccc(CCOc2ccc(C3=NOC(C#N)C3)cc2)nc1 (centres undefined) ?
Output: 5

Task: Given CCc1ccc(CCOc2ccc(C3=NOC(Cc4ccc(OC)c(OC)c4)C3)cc2)nc1 (centres undefined) , state its recorded zone of inhibition at 25 µg/disc.
Output: 10

Task: Name the reported zone of inhibition at 25 µg/disc value associated with the molecule CCc1ccc(CCOc2ccc(C3=NOC(c4ccccc4)C3)cc2)nc1 (centres undefined)
Output: 4
